Biological target: human glucagon receptor (human) (UniProt P47871)
Sequence (P47871 26-477): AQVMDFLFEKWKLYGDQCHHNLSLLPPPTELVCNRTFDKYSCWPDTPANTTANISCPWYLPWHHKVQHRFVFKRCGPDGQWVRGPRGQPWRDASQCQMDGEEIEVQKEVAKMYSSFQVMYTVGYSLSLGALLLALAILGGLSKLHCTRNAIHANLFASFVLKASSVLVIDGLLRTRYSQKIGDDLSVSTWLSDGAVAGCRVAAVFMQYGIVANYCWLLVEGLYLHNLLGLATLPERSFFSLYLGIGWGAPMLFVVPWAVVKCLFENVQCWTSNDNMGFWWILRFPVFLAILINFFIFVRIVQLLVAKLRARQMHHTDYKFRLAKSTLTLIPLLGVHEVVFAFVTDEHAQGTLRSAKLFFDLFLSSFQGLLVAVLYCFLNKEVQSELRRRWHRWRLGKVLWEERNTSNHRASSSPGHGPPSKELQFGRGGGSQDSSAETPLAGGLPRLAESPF
Assay: cell-based or functional assay
Starred links: 1 amine or outer side, 2 acyl side, 3 side chain; linkers in the order of their positions; H or OH if unused. Non-standard residues stand in square brackets, D forms with d. Groups on a side chain read outwards from the residue. No end group written: not given here. *: point of attachment. C18 diacid = O=C(O)CCCCCCCCCCCCCCCCC(=O)*; γGlu = O=C(O)[C@H](CCC(=O)[*:2])N[*:1]; αMe4Pal = C[C@](N)(Cc1ccncc1)C(=O)O; 4Pal = N[C@@H](Cc1ccncc1)C(=O)O; αMeL = CC(C)C[C@](C)(N)C(=O)O; Orn = NCCC[C@H](N)C(=O)O; Dab = NCC[C@H](N)C(=O)O; Aib = CC(C)(N)C(=O)O
MEASUREMENT NAME: Relative cAMP EC50 (nM)
# value in nM; strip the unit string

| BINDER | RECORDED VALUE |
| --- | --- |
| YXQGTXTSDXSILLDKQAQKAFIEYLLEGGPSSGEPPPSEG (not fully specified; synthetic construct; SITE 2: note = 2-Aminoisobutyric Acid; SITE 6: note = alpha-methyl-2-fluoro-L-phenylalanine; SITE 10: note = 3-(4-Pyridyl)-L-alanine; SITE 20: note = Lysine is chemically modified through conjugation of the epsilon-amino group of the Lysine side chain with (2-[2-(2-Amino-ethoxy))) [Example 347] | 8.88 |
| YXQGTXTSDXXIXLDXKAAXEFIEXLIEGGPSSGAPPPSGEEE (synthetic construct; SITE 2: note = 2-Aminoisobutyric Acid; SITE 6: note = alpha-methyl-2-fluoro-L-phenylalanine; SITE 10: note = 3-(4-Pyridyl)-L-alanine; SITE 11: note = alpha-methyl-L-serine; SITE 13: note = alpha-methyl-leucine; SITE 16: note = L-ornithine; SITE 17: note = Lysine is chemically mo) [Example 705] | 1.7 |
| YXQGTXTSDYXILLDKKAQXAFIEYLEEGGPSSGAPPPS (synthetic construct; SITE 2: note = 2-Aminoisobutyric Acid; SITE 6: note = alpha-methyl-L-phenylalanine; SITE 11: note = alpha-methyl-L-serine; SITE 17: note = Lysine is chemically modified through conjugation of the epsilon-amino group of the Lysine side chain with (2-[2-(2-Amino-ethoxy)-ethoxy]-ac)) [Example 393] | 0.947 |
| YXQGTFTSDFSXXLDKKAQXAFIEYLLEAGPSSGHPPPSGH (synthetic construct; SITE 2: note = 2-Aminoisobutyric Acid; SITE 12: note = L-ornithine; SITE 13: note = alpha-methyl-leucine; SITE 17: note = Lysine is chemically modified through conjugation of the epsilon-amino group of the Lysine side chain with (2-[2-(2-Amino-ethoxy)-ethoxy]-acetyl)2-(gamma-Glu)) [Example 255] | 5.48 |
| YXQGTFTSDXSQXLDXKAQXQFIEXLIAXGPSSGEPPPSGSEE (non-natural residues; Lys acylated AEEA-γGlu-C18 diacid; C-terminal amide; synthetic construct; SITE 2: note = 2-Aminoisobutyric Acid; SITE 10: note = 3-(4-Pyridyl)-L-alanine; SITE 13: note = alpha-methyl-leucine; SITE 16: note = L-ornithine; SITE 17: note = Lysine is chemically modified through conjugation of the epsilon-amino group of the Lysine side chain with (2-[2-(2-) [Example 1100] | 5.28 |
| Y[Aib]QGTFTSD[4Pal]S[Dab][αMeL]LD[Orn]K([γGlu-γGlu-C18 diacid])AQ[Aib]AFIE[αMe4Pal]LLAGGPSSGAPPPEGSEE-NH2 [Example 1054] | 8.06 |
| YXQGTFTSDXSQXLDXKAQXQFIQXLIAXGPSSGEPPPSGGGE (Aib, 4Pal, αMeL, Orn, Me4Pal, αMeY; acylated lysine; amide; synthetic construct; SITE 2: note = 2-Aminoisobutyric Acid; SITE 10: note = 3-(4-Pyridyl)-L-alanine; SITE 13: note = alpha-methyl-leucine; SITE 16: note = L-ornithine; SITE 17: note = Lysine is chemically modified through conjugation of the epsilon-amino group of the Lysine side chain with D-Glutami) [Example 1128] | 9.88 |
| YXQGTFTSDXSRXLDKKAQXAFIEYLLAGGPSSGAPPPSGE (synthetic construct; SITE 2: note = 2-Aminoisobutyric Acid; SITE 10: note = 3-(4-Pyridyl)-L-alanine; SITE 13: note = alpha-methyl-leucine; SITE 17: note = Lysine is chemically modified through conjugation of the epsilon-amino group of the Lysine side chain with (2-[2-(2-Amino-ethoxy)-ethoxy]-acetyl)) [Example 113] | 12 |

Item YXQGTXTSDYSIXLDKKAQXAFIEYLEEGGPSSGAPPPE (synthetic construct; SITE 2: note = 2-Aminoisobutyric Acid; SITE 6: note = alpha-methyl-2-fluoro-L-phenylalanine; SITE 13: note = alpha-methyl-leucine; SITE 17: note = Lysine is chemically modified through conjugation of the epsilon-amino group of the Lysine side chain with (2-[2-(2-Amino-ethoxy)-et)) [Example 400] : provide Relative cAMP EC50
2.53

Specify measured Relative cAMP EC50 for YXQGTFTSDFSXXLDKKAQXAFIEYLLEGGPSSGAPXPGGS (Aib, Orn, αMeL, Hyp; acylated Lys; C-terminal amide; synthetic construct; SITE 2: note = 2-Aminoisobutyric Acid; SITE 12: note = L-ornithine; SITE 13: note = alpha-methyl-leucine; SITE 17: note = Lysine is chemically modified through conjugation of the epsilon-amino group of the Lysine side chain with (2-[2-(2-Amino-ethoxy)-ethoxy]-acetyl)-(gamma-Glu)) [Example 236] .
2.23

Consider the binder YXQGTXTSDXXIXLDXKAQXEFIEXLIEGGPSSGAPPPTGE (Aib, αMeF(2F), 4Pal, αMeS, αMeL, Orn, Me4Pal, αMeY, acyl, amide; synthetic construct; SITE 2: note = 2-Aminoisobutyric Acid; SITE 6: note = alpha-methyl-2-fluoro-L-phenylalanine; SITE 10: note = 3-(4-Pyridyl)-L-alanine; SITE 11: note = alpha-methyl-L-serine; SITE 13: note = alpha-methyl-leucine; SITE 16: note = L-ornithine; SITE 17: note = Lysine is chemically mo) [Example 1142] . State its measured Relative cAMP EC50.
1.34

Recall and state the measured Relative cAMP EC50 for YXQGTXTSDXXIXLDXKAQXEFIEXLIEGGPSSGEPPPSGSE (non-natural residues; Lys acylated C18 diacid; C-terminal amide; synthetic construct; SITE 2: note = 2-Aminoisobutyric Acid; SITE 6: note = alpha-methyl-L-phenylalanine; SITE 10: note = 3-(4-Pyridyl)-L-alanine; SITE 11: note = alpha-methyl-L-serine; SITE 13: note = alpha-methyl-leucine; SITE 16: note = L-ornithine; SITE 17: note = Lysine is chemically modified th) [Example 1167] .
2.16

Input Y[Aib]QGTFTSDYSK[αMeL]LDKKAQQAFIEYLLAGGPSSGEPPPSGE-NH2 (not fully specified (residue 17)) [Example 344] , output reported Relative cAMP EC50.
9.05
